test system: duplex oligomer d(CGCGAATTCGCG)2 (A2 T2); test: Thermal melting with the duplex oligomer, ranking of relative DNA binding affinities; details: duplex oligomer A2T2
Where a name gives a salt, the structure may show the parent alone.
# if measured ΔTM (oligomer), increase in thermal melting of the oligomer < 9: YES  # else: NO

Compound	Class Name
N=C(NC1CCCC1)c1ccc(-c2coc(-c3ccc(C(=N)NC4CCCC4)cc3)c2)cc1 [Compound 4]	NO
c1cc(-c2coc(-c3ccc(C4=NCCN4)cc3)c2)ccc1C1=NCCN1 [Compound 5, Dihydrochloride]	YES
CC(C)CNC(=N)c1ccc(-c2coc(-c3ccc(C(=N)NCC(C)C)cc3)c2)cc1 [Compound 3]	NO
CC(C)NC(=N)c1ccc(-c2coc(-c3ccc(C(=N)NC(C)C)cc3)c2)cc1 [Compound 2]	NO
